Target: mouse Tas2r144 (Mus musculus, UniProt Q7TQB8)
Construct: expressed in transfected cells; host or cells: HEK293T-Gα16gust44
Sequence (Q7TQB8 whole entry): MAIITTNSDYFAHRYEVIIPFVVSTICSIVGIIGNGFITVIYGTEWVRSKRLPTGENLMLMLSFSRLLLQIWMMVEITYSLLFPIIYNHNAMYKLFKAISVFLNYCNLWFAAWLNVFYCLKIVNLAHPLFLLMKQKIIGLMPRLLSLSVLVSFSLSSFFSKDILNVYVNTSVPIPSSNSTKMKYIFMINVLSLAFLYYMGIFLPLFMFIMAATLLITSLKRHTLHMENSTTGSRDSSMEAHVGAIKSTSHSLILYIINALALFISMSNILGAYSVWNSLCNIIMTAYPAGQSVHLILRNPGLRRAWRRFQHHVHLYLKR
Test: Calcium imaging assay (FLIPR), HEK293T-Gα16gust44 cells transfected with mouse Tas2r144
Type: cell-based
Conditions: Time 44.781 s
METRIC NAME: RLU (RLU)
// note: answer is a bare numeric in RLU

// below: answered compounds
Any idea what RLU was measured for C[C@H](CCC(=O)NCCS(=O)(=O)O)[C@H]1CC[C@H]2[C@@H]3CC[C@@H]4C[C@H](O)CC[C@]4(C)[C@H]3CC[C@]12C [Taurolithocholic Acid, taurolithocholic acid] ? 268.298

Please do the same for C[C@H](CCC(=O)O)[C@H]1CC[C@H]2[C@@H]3[C@H](O)C[C@@H]4C[C@H](O)CC[C@]4(C)[C@H]3C[C@H](O)[C@]12C [Cholic Acid, cholic acid] as well. 633.066

Please do the same for C[C@H](CCC(=O)NCCS(=O)(=O)O)[C@H]1CC[C@H]2[C@@H]3[C@H](O)C[C@@H]4C[C@H](O)CC[C@]4(C)[C@H]3C[C@H](O)[C@]12C [Taurocholic Acid, taurocholic acid] as well. 478.994

# context switch: different compound, same RLU
Any idea what RLU was measured for C[C@H](CCC(=O)NCC(=O)O)[C@H]1CC[C@H]2[C@@H]3[C@H](O)C[C@@H]4C[C@H](O)CC[C@]4(C)[C@H]3C[C@H](O)[C@]12C [Glycocholic Acid, glycocholic acid] ? 371.949
